In this section, each of the compounds is paired with its reported Dmax.
- tgt: HiBiT tagged Wee1 (Homo sapiens, UniProt P30291)
- Sequence (P30291 whole entry): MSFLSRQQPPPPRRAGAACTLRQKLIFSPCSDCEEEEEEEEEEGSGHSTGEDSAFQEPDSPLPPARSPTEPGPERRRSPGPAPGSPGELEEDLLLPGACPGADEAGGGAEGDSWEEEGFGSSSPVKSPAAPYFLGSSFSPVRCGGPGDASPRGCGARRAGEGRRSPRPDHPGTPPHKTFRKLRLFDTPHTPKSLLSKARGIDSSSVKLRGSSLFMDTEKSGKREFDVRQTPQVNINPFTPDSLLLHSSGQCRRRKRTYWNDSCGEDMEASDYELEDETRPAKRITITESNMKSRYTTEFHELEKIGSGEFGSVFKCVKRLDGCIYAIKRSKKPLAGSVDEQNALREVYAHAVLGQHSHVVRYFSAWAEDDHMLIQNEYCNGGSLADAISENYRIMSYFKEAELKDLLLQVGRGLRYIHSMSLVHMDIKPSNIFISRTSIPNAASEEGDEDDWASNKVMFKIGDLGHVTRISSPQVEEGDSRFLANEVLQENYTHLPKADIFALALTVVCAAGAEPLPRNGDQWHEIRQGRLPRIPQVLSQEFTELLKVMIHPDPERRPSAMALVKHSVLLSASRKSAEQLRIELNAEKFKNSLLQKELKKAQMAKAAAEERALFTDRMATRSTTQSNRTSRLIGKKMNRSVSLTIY
- test.description: Wee1 protein degradation assay (HiBiT assay)
- Type: cell-based
- run.parameters: engineered HT-1080 cells, 20 hours; maximum percentage of Wee1 degradation; read-out: HiBiT Wee1: Dmax

Past entries and their recorded results:
C=CCn1c(=O)c2cnc(Nc3ccc(N4CCN(C[C@@H]5CCN(c6ccc7c(c6)C(=O)N(C6CCC(=O)NC6=O)C7=O)C5)CC4)cc3)nc2n1-c1cccc(C(C)(C)O)n1 (some centres unmarked) [Compound 38] ... 50 to 75%
C=CCn1c(=O)c2cnc(Nc3ccc4c(c3)CN(CCCNc3ccc5c(c3)C(=O)N(C3CCC(=O)NC3=O)C5=O)CC4)nc2n1-c1cccc(C(C)(C)O)n1 (centres unmarked) [Compound 23] ... < 50%
C=CCn1c(=O)c2cnc(Nc3ccc(C4CCN(CC5CCN(c6ccc(NC7CCC(=O)NC7=O)cc6C(F)(F)F)CC5)CC4)cc3)nc2n1-c1cccc(C(C)(C)O)n1 (centres unmarked) [Compound 107] ... > 75%
C=CCn1c(=O)c2cnc(Nc3ccc(C4CCN(C5CCN(c6ccc7c(c6)C(=O)N(C6CCC(=O)NC6=O)C7=O)CC5)CC4)cc3)nc2n1-c1ccc2c(n1)[C@@](O)(CC)CC2 (some centres unmarked) [Compound 75] ... 50 to 75%

Answer with Dmax of C=CCn1c(=O)c2cnc(Nc3ccc(N4CCN(CC5CCN(c6ccc7c(N8CCC(=O)NC8=O)nn(C)c7c6)CC5)CC4)cc3)nc2n1-c1cccc(C(C)(C)O)n1 [Compound 105] measured for HiBiT tagged Wee1 (Homo sapiens, UniProt P30291).
> 75%
